Molecular target: T1, cynomolgus monkey (Macaca fascicularis) TfR1 (cynomolgus monkey (Macaca fascicularis), UniProt Q5RDH6 89-760 (Pongo abelii entry), limits assumed)
T1 construct: also called cTfR1; cyTfR1
T1 chain: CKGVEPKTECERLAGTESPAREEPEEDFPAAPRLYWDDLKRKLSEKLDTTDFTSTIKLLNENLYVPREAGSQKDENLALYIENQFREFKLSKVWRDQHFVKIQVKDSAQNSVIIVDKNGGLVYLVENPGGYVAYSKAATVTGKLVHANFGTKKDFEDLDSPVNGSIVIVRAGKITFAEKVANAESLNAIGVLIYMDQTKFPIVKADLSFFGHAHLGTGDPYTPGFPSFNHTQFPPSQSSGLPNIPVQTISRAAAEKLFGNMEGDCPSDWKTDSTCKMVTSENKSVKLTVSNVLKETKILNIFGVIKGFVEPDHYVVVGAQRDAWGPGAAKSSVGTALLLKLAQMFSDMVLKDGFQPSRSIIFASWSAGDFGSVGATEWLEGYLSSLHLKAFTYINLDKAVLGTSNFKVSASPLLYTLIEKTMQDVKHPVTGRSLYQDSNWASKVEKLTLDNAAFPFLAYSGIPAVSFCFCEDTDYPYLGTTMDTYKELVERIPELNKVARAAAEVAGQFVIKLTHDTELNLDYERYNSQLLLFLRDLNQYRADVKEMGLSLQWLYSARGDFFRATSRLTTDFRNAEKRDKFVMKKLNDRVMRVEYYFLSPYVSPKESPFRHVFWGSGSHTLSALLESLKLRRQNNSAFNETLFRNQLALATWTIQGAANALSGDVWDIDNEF
Test: ELISA, Fab-ASO300 conjugate
pEC50: −log10 of the molar value.
METRIC NAME: pEC50

[
  {
    "BINDER": "conjugate of humanized anti-TfR Fab 3A4 VH3/Vk4 with DMPK-targeting oligonucleotide ASO300 (Fab, V domains shown, ASO300 oligonucleotide attached through a cleavable Val-Cit linker (Formula (C)); residue and chain not stated, also called 3A4 (VH3/Vk4) conjugate; DMPK oligo conjugate) VH: EVQLVQSGSELKKPGASVKVSCTASGFNIKDDYMYWVRQPPGKGLEWIGWIDPENGDTEYASKFQDRVTVTADTSTNTAYMELSSLRSEDTAVYYCTLWLRRGLDYWGQGTLVTVSS VL: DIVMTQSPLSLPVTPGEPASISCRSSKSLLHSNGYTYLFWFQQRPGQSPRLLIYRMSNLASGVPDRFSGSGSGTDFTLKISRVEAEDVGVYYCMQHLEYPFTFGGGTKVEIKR",
    "METRIC NAME": "pEC50",
    "READOUT NUMBER": 8.12
  },
  {
    "BINDER": "conjugate of humanized anti-TfR Fab 5H12 VH5 (C33Y)/Vk4 with DMPK-targeting oligonucleotide ASO300 (Fab, V domains shown, ASO300 oligonucleotide attached through a cleavable Val-Cit linker (Formula (C)); residue and chain not stated, also called 5H12 (VH5-C33Y/Vk4) conjugate; DMPK oligo conjugate) VH: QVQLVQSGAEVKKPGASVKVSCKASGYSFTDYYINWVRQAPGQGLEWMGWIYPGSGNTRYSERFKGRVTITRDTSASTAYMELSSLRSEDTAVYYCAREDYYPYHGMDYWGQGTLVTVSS VL: DIVMTQSPDSLAVSLGERATINCRASESVDGYDNSFMHWYQQKPGQPPKLLIFRASNLESGVPDRFSGSGSGTDFTLTISSLQAEDVAVYYCQQSSEDPWTFGQGTKLEIKR",
    "METRIC NAME": "pEC50",
    "READOUT NUMBER": 7.86
  },
  {
    "BINDER": "conjugate of humanized anti-TfR Fab 3M12 VH3/Vk2 with DMPK-targeting oligonucleotide ASO300 (Fab, V domains shown, ASO300 oligonucleotide attached through a cleavable Val-Cit linker (Formula (C)); residue and chain not stated, also called 3M12 (VH3/Vk2) conjugate; DMPK oligo conjugate) VH: QVQLQESGPGLVKPSQTLSLTCSVTGYSITSGYYWNWIRQPPGKGLEWMGYITFDGANNYNPSLKNRVSISRDTSKNQFSLKLSSVTAEDTATYYCTRSSYDYDVLDYWGQGTTVTVSS VL: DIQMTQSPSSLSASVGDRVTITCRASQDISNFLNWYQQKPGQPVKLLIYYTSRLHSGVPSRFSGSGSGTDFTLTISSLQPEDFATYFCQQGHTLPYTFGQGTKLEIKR",
    "METRIC NAME": "pEC50",
    "READOUT NUMBER": 8.65
  },
  {
    "BINDER": "conjugate of humanized anti-TfR Fab 5H12 VH5 (C33D)/Vk4 with DMPK-targeting oligonucleotide ASO300 (Fab, V domains shown, ASO300 oligonucleotide attached through a cleavable Val-Cit linker (Formula (C)); residue and chain not stated, also called 5H12 (VH5-C33D/Vk4) conjugate; DMPK oligo conjugate) VH: QVQLVQSGAEVKKPGASVKVSCKASGYSFTDYDINWVRQAPGQGLEWMGWIYPGSGNTRYSERFKGRVTITRDTSASTAYMELSSLRSEDTAVYYCAREDYYPYHGMDYWGQGTLVTVSS VL: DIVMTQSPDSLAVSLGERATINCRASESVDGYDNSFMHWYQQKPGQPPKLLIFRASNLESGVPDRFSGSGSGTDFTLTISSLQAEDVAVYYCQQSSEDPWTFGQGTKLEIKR",
    "METRIC NAME": "pEC50",
    "READOUT NUMBER": 7.99
  }
]
